Below is a list of entries, each paired with its recorded log10 GI50 value.
# Test system: MCF7
# assay.method.text: Growth inhibition of human MCF7 cells by MTT assay
# Format: functional
attribute.measured: log10 GI50 (log10 of the value in µM)

# compound, log10 GI50
data = [
    ("CC1=C(/C=C/C(C)=C/C=C/C(C)=C/C(=O)Nc2ccc(O)cc2)C(C)(C)CCC1 [FENRETINIDE]", 0.67),
    ("CC1=C(/C=C/C(C)=C/C=C/C(C)=C\\C(=O)NCc2ccccc2)C(C)(C)CCC1n1ccnc1 (stereo not drawn)", 0.99),
    ("CC1=C(/C=C/C(C)=C/C=C/C(C)=C\\C(=O)Nc2ccc(O)cc2)C(C)(C)CCC1n1ccnc1 (stereo not drawn)", 0.30),
    ("CC1=C(/C=C/C(C)=C/C=C/C(C)=C\\C(=O)Nc2cccc(F)c2)C(C)(C)CCC1n1ccnc1 (stereo not drawn)", 0.74),
    ("CC1=C(/C=C/C(C)=C/C=C/C(C)=C\\C(=O)Nc2ccccc2O)C(C)(C)CCC1n1ccnc1 (stereo not drawn)", 0.04),
    ("CC1=C(/C=C/C(C)=C/C=C/C(C)=C\\C(=O)NCc2ccc(F)cc2)C(C)(C)CCC1n1ccnc1 (stereo not drawn)", 0.29),
    ("CC1=C(/C=C/C(C)=C/C=C/C(C)=C\\C(=O)Nc2ccccc2)C(C)(C)CC=C1c1cncnc1", 0.85),
    ("CC1=C(/C=C/C(C)=C/C=C/C(C)=C\\C(=O)NCc2ccc(O)cc2)C(C)(C)CCC1n1ccnc1 (stereo not drawn)", -0.80),
]
